system: male rats; experiment: Plasma metabolite profiling (GC-MS, LC-MS, SPE-LC-MS) in male rats dosed once daily over 28 days (OECD 407); type: in vivo, rat; conditions: m28; high dose; Table 14b
Structures can show the parent of a compound that is named as a salt.
Rule for this label: 1 (yes) means Lignoceric acid (C24:0) is less than 0.3; 0 (no) means Lignoceric acid (C24:0) is at least 0.3.

[[record]]
molecule = "CC/C(=C(\\c1ccccc1)c1ccc(OCCN(C)C)cc1)c1ccccc1"
group = "0 (no)"

[[record]]
molecule = "OCCNCCO"
group = "0 (no)"

[[record]]
molecule = "C[C@]12CCC(=O)C=C1CC[C@@H]1[C@@H]2CC[C@@]2(C)[C@H]1CC[C@]2(C)O"
group = "1 (yes)"

[[record]]
molecule = "C#C[C@]1(O)CC[C@H]2[C@@H]3CCc4cc(O)ccc4[C@H]3CC[C@@]21C"
group = "0 (no)"

[[record]]
molecule = "C[C@]12C=CC3=C4CCC(=O)C=C4CCC3C1CC[C@@H]2O (stereo partly drawn)"
group = "0 (no)"

[[record]]
molecule = "O=C(c1ccc(OCCN2CCCCC2)cc1)c1c(-c2ccc(O)cc2)sc2cc(O)ccc12 [Raloxifene Hydrochloride]"
group = "0 (no)"


* * *

system: male rats; test: Plasma metabolite profiling (GC-MS, LC-MS, SPE-LC-MS) in male rats dosed once daily over 28 days (OECD 407); type: in vivo, rat; details: m14; high dose; Table 14b
Structures can show the parent of a compound that is named as a salt.
Here, each record is paired with measured Lignoceric acid (C24:0) data.
Endpoint label: Lignoceric acid (C24:0)

[[record]]
molecule = "O=C(c1ccc(OCCN2CCCCC2)cc1)c1c(-c2ccc(O)cc2)sc2cc(O)ccc12 [Raloxifene Hydrochloride]"
endpoint_label = "Lignoceric acid (C24:0)"
data_value = 0.39

[[record]]
molecule = "C[C@]12C=CC3=C4CCC(=O)C=C4CCC3C1CC[C@@H]2O (stereo partly drawn) [Trenbolone]"
endpoint_label = "Lignoceric acid (C24:0)"
data_value = 0.17

[[record]]
molecule = "C#C[C@]1(O)CC[C@H]2[C@@H]3CCc4cc(O)ccc4[C@H]3CC[C@@]21C [17-alpha-Ethynylestradiol]"
endpoint_label = "Lignoceric acid (C24:0)"
data_value = 0.21

[[record]]
molecule = "OCCNCCO [Diethanolamine]"
endpoint_label = "Lignoceric acid (C24:0)"
data_value = 0.68

[[record]]
molecule = "C[C@]12CCC(=O)C=C1CC[C@@H]1[C@@H]2CC[C@@]2(C)[C@H]1CC[C@]2(C)O [17-alpha-Methyltestosterone]"
endpoint_label = "Lignoceric acid (C24:0)"
data_value = 0.39

[[record]]
molecule = "CC/C(=C(\\c1ccccc1)c1ccc(OCCN(C)C)cc1)c1ccccc1 [Tamoxifen]"
endpoint_label = "Lignoceric acid (C24:0)"
data_value = 0.63


* * *

system: male rats; test: Plasma metabolite profiling (GC-MS, LC-MS, SPE-LC-MS) in male rats dosed once daily over 28 days (OECD 407); type: in vivo, rat; conditions: m7; high dose; Table 14b
Where a name gives a salt, the structure may show the parent alone.
Cholesterol for assorted compounds
Endpoint label: Cholesterol

[[record]]
compound = "OCCNCCO [Diethanolamine]"
data_value = 0.75

[[record]]
compound = "C#C[C@]1(O)CC[C@H]2[C@@H]3CCc4cc(O)ccc4[C@H]3CC[C@@]21C [17-alpha-Ethynylestradiol]"
data_value = 0.19

[[record]]
compound = "C[C@]12CCC(=O)C=C1CC[C@@H]1[C@@H]2CC[C@@]2(C)[C@H]1CC[C@]2(C)O [17-alpha-Methyltestosterone]"
data_value = 0.29

[[record]]
compound = "C[C@]12C=CC3=C4CCC(=O)C=C4CCC3C1CC[C@@H]2O (stereo partly drawn) [Trenbolone]"
data_value = 0.22

[[record]]
compound = "CC/C(=C(\\c1ccccc1)c1ccc(OCCN(C)C)cc1)c1ccccc1 [Tamoxifen]"
data_value = 0.45

[[record]]
compound = "O=C(c1ccc(OCCN2CCCCC2)cc1)c1c(-c2ccc(O)cc2)sc2cc(O)ccc12 [Raloxifene Hydrochloride]"
data_value = 0.44


meta.source: patent US20150010928A1
